- Tested on: S. cerevisiae BY4741 (wild-type), vegetative growth in YPD
- experimental.protocol: growth sensitivity score (doubling time z-score vs DMSO controls); higher = slower growth, strongly negative scores also mark growth inhibition (complete suppression), active = hit call of the paper
Reported growth sensitivity score by item:
Reply briefly: the number, and no unit.

Use the examples below as a reference point.
{"molecule": "COc1cc(N)c(Cl)cc1C(=O)NC1CCN(CCCOc2ccc(F)cc2)CC1OC (stereo not drawn) [Cisapride] (stock concentration (mM, diluted 1:100): 10.5)", "recorded.number": 1.35}
{"molecule": "Clc1ccc(CO/N=C(\\Cn2ccnc2)c2ccc(Cl)cc2Cl)c(Cl)c1 [Oxiconazole nitrate] (stock concentration (mM, diluted 1:100): 10)", "recorded.number": 66.3}
{"molecule": "CC(C(O)c1ccc(O)cc1)N1CCC(Cc2ccccc2)CC1 (stereo not drawn) [Ifenprodil] (stock concentration (mM, diluted 1:100): 9.2)", "recorded.number": 3.06}
{"molecule": "CC(C)(C)NC(=O)[C@H]1CC[C@H]2[C@@H]3CC[C@H]4NC(=O)C=C[C@]4(C)[C@H]3CC[C@]12C [Finasteride] (stock concentration (mM, diluted 1:100): 10)", "recorded.number": 1.37}
{"molecule": "O=C(CCNNC(=O)c1ccncc1)NCc1ccccc1 [Nialamide] (stock concentration (mM, diluted 1:100): 10)", "recorded.number": 0.19}

Q: Identify measured growth sensitivity score associated with C[C@@H](O)[C@H]1C(=O)N2C(C(=O)O)=C(S[C@@H]3CN[C@H](C(=O)N(C)C)C3)[C@H](C)[C@H]12 [Meropenem] (stock concentration (mM, diluted 1:100): 11.4)
Result: -1.19

Q: Identify measured growth sensitivity score associated with C#C[C@]1(O)CC[C@H]2[C@@H]3CCc4cc(O)ccc4[C@H]3CC[C@@]21C [Ethynylestradiol] (stock concentration (mM, diluted 1:100): 10)
Result: 2.85

Q: Identify measured growth sensitivity score associated with Nc1nc(O)c2ncn(CCC(CO)CO)c2n1 [Penciclovir] (stock concentration (mM, diluted 1:100): 10)
Result: -0.88

The values you see were collected from the supplement of paper PMC3414501.
